biological target: Epidermal growth factor receptor (Homo sapiens, UniProt P00533, T790M); experiment: Inhibition of EGFR T790M mutant (unknown origin)
Sequence (P00533 25-1210 T790M limits assumed): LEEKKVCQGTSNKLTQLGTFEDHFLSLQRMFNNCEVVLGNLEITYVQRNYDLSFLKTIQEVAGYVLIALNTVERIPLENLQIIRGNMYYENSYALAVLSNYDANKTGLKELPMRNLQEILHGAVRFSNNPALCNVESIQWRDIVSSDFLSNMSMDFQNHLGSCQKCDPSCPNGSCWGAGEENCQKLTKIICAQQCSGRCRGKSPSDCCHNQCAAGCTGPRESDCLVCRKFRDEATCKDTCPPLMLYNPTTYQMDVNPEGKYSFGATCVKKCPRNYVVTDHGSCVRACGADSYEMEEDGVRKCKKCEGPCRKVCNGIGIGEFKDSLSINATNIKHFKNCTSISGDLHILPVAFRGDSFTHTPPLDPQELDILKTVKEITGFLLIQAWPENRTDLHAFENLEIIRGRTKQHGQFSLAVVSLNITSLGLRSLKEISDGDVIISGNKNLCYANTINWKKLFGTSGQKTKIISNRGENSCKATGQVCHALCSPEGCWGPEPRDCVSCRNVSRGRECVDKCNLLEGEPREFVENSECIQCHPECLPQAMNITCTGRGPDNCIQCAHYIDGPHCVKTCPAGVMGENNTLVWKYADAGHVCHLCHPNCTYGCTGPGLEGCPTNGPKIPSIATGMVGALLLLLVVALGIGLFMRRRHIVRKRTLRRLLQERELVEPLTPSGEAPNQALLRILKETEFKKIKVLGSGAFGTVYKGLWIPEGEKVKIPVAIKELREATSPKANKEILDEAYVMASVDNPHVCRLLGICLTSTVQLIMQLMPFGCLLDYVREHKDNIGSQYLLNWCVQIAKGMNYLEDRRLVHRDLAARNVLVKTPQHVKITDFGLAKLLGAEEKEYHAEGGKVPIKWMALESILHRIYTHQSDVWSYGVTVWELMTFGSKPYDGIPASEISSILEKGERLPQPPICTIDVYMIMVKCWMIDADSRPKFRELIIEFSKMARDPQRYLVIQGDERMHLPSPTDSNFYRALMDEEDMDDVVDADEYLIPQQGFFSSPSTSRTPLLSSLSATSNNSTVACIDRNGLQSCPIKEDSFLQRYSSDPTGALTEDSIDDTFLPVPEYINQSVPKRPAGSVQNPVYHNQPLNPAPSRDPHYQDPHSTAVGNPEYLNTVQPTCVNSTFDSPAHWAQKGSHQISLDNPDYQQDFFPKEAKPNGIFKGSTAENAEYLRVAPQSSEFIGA
I'd appreciate it if you could supply pIC50 values for the items below.
Would you please state pIC50, meaning minus log10 of the concentration in mol/L, as a bare number?

Incoming: Item under review: CC#CC(=O)Nc1ccc(Nc2nccc(-c3cn(C)c4ccccc34)n2)cc1 . Reported pIC50?
Outgoing: 6.66

Incoming: Item under review: C=CC(=O)Nc1ccc(Nc2nccc(-c3cn(C)c4ccccc34)n2)cc1 . Reported pIC50?
Outgoing: 6.74

###

system: HepG2; assay: Anticancer activity against human HepG2 cells; type: functional, cell-based
assay.metric: pIC50
Would you please state pIC50, meaning minus log10 of the concentration in mol/L, as a bare number?

Incoming: Item under review: Cc1ccc(-c2cc(-c3ccc(Cl)cc3)nc3nc(-n4[nH]c(C)cc4=O)[nH]c(=O)c23)cc1 . Reported pIC50?
Outgoing: 6.52

###

system: ACHN; assay: Anticancer activity against human ACHN cells assessed as cell viability incubated for 24 hrs by MTT assay; assay type: functional, cell-based
assay.metric: pIC50
Would you please state pIC50, meaning minus log10 of the concentration in mol/L, as a bare number?

Incoming: Item under review: Cc1nn(-c2ccc(F)cc2)c2c(Nc3ccc(F)c(Cl)c3)ncnc12 . Reported pIC50?
Outgoing: 5.26

###

target: Epidermal growth factor receptor (Homo sapiens); test: Inhibition of recombinant C-terminal His-tagged/N-terminal GST-tagged human EGFR expressed in sf9 insect cells using poly(Glu, Tyr) sodium salt (4:1, Glu:Tyr) as a substrate measured after 40 mins by Kinase-Glo reagent based luminescence analysis
assay.metric: pIC50
Would you please state pIC50, meaning minus log10 of the concentration in mol/L, as a bare number?

Incoming: Item under review: Fc1cccc(COc2ccc(Nc3ncnc4sc5c(c34)CCCC5)cc2Cl)c1 . Reported pIC50?
Outgoing: 6.70

###

system: HCC827; experiment: Antiproliferative activity against human HCC827 assessed as cell growth inhibition; format: functional, cell-based
assay.metric: pIC50
Would you please state pIC50, meaning minus log10 of the concentration in mol/L, as a bare number?

Incoming: Item under review: CN(C)C1CCN(c2ccc(Nc3cc4c(N5CCC(CO)CC5)nc(Nc5ccc(F)cc5)nc4cn3)nc2)CC1 . Reported pIC50?
Outgoing: 7.40

###

system: OVCAR-4; assay: Anticancer activity against human OVCAR-4 cells assessed as cell viability incubated for 24 hrs by MTT assay; type: functional, cell-based; conditions: OVCAR-4, 24 h
assay.metric: pIC50
Would you please state pIC50, meaning minus log10 of the concentration in mol/L, as a bare number?

Incoming: Item under review: Cc1nn(-c2ccc(F)cc2)c2c(Nc3ccc(F)c(Cl)c3)ncnc12 . Reported pIC50?
Outgoing: 5.76

###

tested on: PC-3; test: Anticancer activity against human PC-3 cells; format: functional, cell-based
assay.metric: pIC50
Would you please state pIC50, meaning minus log10 of the concentration in mol/L, as a bare number?

Incoming: Item under review: Cc1ccc(-c2cc(-c3ccc(Cl)cc3)nc3nc(-n4[nH]c(C)cc4=O)[nH]c(=O)c23)cc1 . Reported pIC50?
Outgoing: 5.18
